System: A549 NSCLC
test_description: NCI tumour cell line growth inhibition, 48 h
metric: TGI

[ask] What measured TGI is associated with "CCc1ccccc1NC(=O)/C(N=O)=C(/C)O" on A549 NSCLC?
[reply] > 100 µM

Others:
[ask] What measured TGI is associated with "Nc1c(C(=O)c2cccc(-c3cccnc3)c2)cnn1-c1ccc(F)cc1F" on A549 NSCLC?
[reply] > 25 µM

[ask] Query "COc1ccc(CC(=O)c2ccc(O)cc2O)cc1" next
[reply] > 100 µM

[ask] Query "O=C(N/N=C/c1cc(Br)cc(Br)c1[O-])c1ccccc1O.O=C(N/N=C/c1cc(Br)cc(Br)c1[O-])c1ccccc1O.[Co+2]" next
[reply] 12.6 µM

[ask] Query "O=C1NOC(c2ccc(O)cc2)(c2ccc(O)cc2)c2ccccc21" next
[reply] > 100 µM

[ask] Query "O=S(=O)(c1cccc2c(I)cccc12)N1CCCNCC1" next
[reply] > 100 µM

---

Test system: ACHN renal
test_description: NCI tumour cell line growth inhibition, 48 h
Use 10 µM as the dividing line for TGI, with the line itself on the t side and lower values as f.

Worked cases, answers included:
[ask] Quick check, TGI >= 10 µM? "COc1cc([N+](=O)[O-])c(OC)cc1-c1nc2sccn2c1/C=N/N=C(N)N"
[reply] t

[ask] Query "CCOC(=O)c1c(NC(=S)Nc2ccccc2)sc2c1CCOC2" next
[reply] t

[ask] Query "O1[As]2O[As]3O[As]1O[As](O2)O3" next
[reply] t

[ask] Query "Cc1nn(-c2ccc([N+](=O)[O-])cc2)c2ncnc(N/N=C/c3ccccc3O)c12" next
[reply] f

[ask] Query "Cc1nn(C)c(COc2ccc(N3CCN(S(=O)(=O)N(C)C)CC3)cc2)c1-c1cccc2c(CCCOc3cccc4ccccc34)c(C(=O)O)n(CCN3CCOCC3)c12" next
[reply] t

Others:
[ask] Quick check, TGI >= 10 µM? "O=C(c1ccc(Cl)cc1)N(C(=S)OCCOc1ccccc1)c1ccccc1"
[reply] t

[ask] Query "Nc1ccccc1C#C/C=C\C#Cc1cccc(O)c1" next
[reply] t

[ask] Query "O=C1c2ccc3c4c(ccc(c24)C(=O)N1CCCNCc1ccccc1Cl)C(=O)N(CCCNCc1ccccc1Cl)C3=O" next
[reply] f

---

System: UACC-257 melanoma
test_description: NCI tumour cell line growth inhibition, 48 h
Catalogue of TGI values

Use these answered entries as a reference point.
[ask] What does the data say about its TGI? Entry: "NCCN.O=C([O-])CN1CCOCC1.[OH-].[Pt+4]"
[reply] > 100 µM

[ask] Query "CCc1ccccc1NC(=O)/C(N=O)=C(/C)O" next
[reply] > 100 µM

Others:
[ask] What does the data say about its TGI? Entry: C=C1C[C@H](O)[C@H](Br)C(C)(C)C12CCC(C)(Cl)C(Br)C2 (some centres not stated)
[reply] 3.06 µM

[ask] Query "COc1ccc(CC(=O)c2ccc(O)cc2O)cc1" next
[reply] > 100 µM

---

Catalogue of GI50 values
Tested on: SK-OV-3 ovarian
test_description: NCI tumour cell line growth inhibition, 48 h

Use these answered entries as a reference point.
[ask] What does the data say about its GI50? Entry: "Cc1[nH]c(=O)nc(Nc2ccc(Cl)cc2)c1C(=O)N1CCN(CCO)CC1"
[reply] 29.8 µM

[ask] Query "COc1ccccc1CNCCCN1C(=O)c2ccc3c4c(ccc(c24)C1=O)C(=O)N(CCCN)C3=O" next
[reply] 2.53 µM

[ask] Query "CCSc1nc(SCC)c2c(-c3ccc(OC)c(OC)c3)c(C#N)c(SCC)nc2n1" next
[reply] > 100 µM

[ask] Query CCN1C(=O)N(CC)C2C1NN=c1s/c(=C\c3ccccn3)c(=O)n12 (stereo not drawn) next
[reply] 3.92 µM

[ask] Query "Cc1ccc(-c2nc3nc(-c4ccccc4)nc(N4CCNCC4)c3o2)cc1" next
[reply] 1.9 µM

Could you now look at the following compound, please?
[ask] What does the data say about its GI50? Entry: "C=C1c2ccoc2C[C@H]2[C@H]1CC[C@@]1(O)[C@@](C)(C(=O)OC)CCC[C@]21C"
[reply] > 100 µM
